B1: Segment polarity protein dishevelled homolog DVL-3, residues 2 to 81; numbered along this chain, Q92997 (parent)
chain: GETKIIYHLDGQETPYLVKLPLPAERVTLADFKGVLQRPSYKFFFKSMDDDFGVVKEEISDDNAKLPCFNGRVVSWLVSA

# Variants of: B1
# assay-comment: abundance fitness (aPCA) (normalised: wild type 0, dead -1); higher = more abundant; growth selection in yeast, the domain comes from the species named
# cond: Homo sapiens
Reported abundance fitness is given for each of the following variants.

{"mut": "K56I", "abundance fitness": 0.03}
{"mut": "S47A", "abundance fitness": -0.051}
{"mut": "A64N", "abundance fitness": -0.523}
{"mut": "P67K", "abundance fitness": -1.02}
{"mut": "S75V", "abundance fitness": -0.161}
{"mut": "F45H", "abundance fitness": -0.864}
{"mut": "G53Y", "abundance fitness": 0.223}
{"mut": "P23I", "abundance fitness": -0.112}
{"mut": "C68A", "abundance fitness": -0.003}
{"mut": "A64W", "abundance fitness": -0.672}
{"mut": "E25N", "abundance fitness": -0.006}
{"mut": "D62F", "abundance fitness": -0.536}
{"mut": "V27N", "abundance fitness": -0.785}
{"mut": "D51W", "abundance fitness": -0.824}
{"mut": "S79I", "abundance fitness": -0.652}
{"mut": "K56Y", "abundance fitness": 0.592}
{"mut": "F45C", "abundance fitness": -0.569}
{"mut": "K65I", "abundance fitness": 0.263}
{"mut": "F69S", "abundance fitness": -0.163}
{"mut": "A30E", "abundance fitness": -0.831}
{"mut": "L77Y", "abundance fitness": -0.911}
{"mut": "D50A", "abundance fitness": -0.15}
{"mut": "L66K", "abundance fitness": -0.644}
{"mut": "S75Y", "abundance fitness": -0.669}
{"mut": "V54M", "abundance fitness": -0.188}
{"mut": "V55H", "abundance fitness": 0.365}
{"mut": "V78D", "abundance fitness": -0.708}
{"mut": "M48R", "abundance fitness": 0.204}
{"mut": "V74M", "abundance fitness": -0.198}
{"mut": "K65C", "abundance fitness": -0.183}
{"mut": "S47R", "abundance fitness": 0.34}
{"mut": "R72D", "abundance fitness": -0.272}
{"mut": "E25Q", "abundance fitness": -0.389}
{"mut": "W76N", "abundance fitness": -0.661}
{"mut": "F32G", "abundance fitness": -0.916}
{"mut": "D50L", "abundance fitness": -0.475}
{"mut": "S47I", "abundance fitness": 0.336}
{"mut": "L66T", "abundance fitness": -0.772}
{"mut": "F52I", "abundance fitness": 0.036}
{"mut": "V27K", "abundance fitness": -0.469}
{"mut": "A24S", "abundance fitness": -0.03}
{"mut": "A24N", "abundance fitness": -0.415}
{"mut": "W76G", "abundance fitness": -0.648}
{"mut": "L20G", "abundance fitness": -0.625}
{"mut": "F44P", "abundance fitness": -0.685}
{"mut": "G53M", "abundance fitness": -0.032}
